- Measured on: T1, Acro SARS-CoV-2 (COVID-19) S1 protein (SARS-CoV-2, UniProt P0DTC2 16-685)
- T1 construct: also called SARS-CoV-2 S1
- Measurement description: SPR
Recorded endpoint: Kd (nM)
Answers are plain numbers, in nM.

Use these answered entries as a reference point.
>>> endpoint_result("variant 6-40 (Fc fusion) VHH: EVQLVESGGGLVQPGGSLRLSCAASGFTFSDYWMGWFRQAPGKERELVARVWWNGGSAYYADSVKGRFTISADNSKNTAYLQMNSLKPEDTAVYYCAREVLRQQVVLDYWGQGTLVTVSS")
44.3
>>> endpoint_result("variant 6-12 (Fc fusion) VHH: EVQLVESGGGLVQPGGSLRLSCAASGSTYTTYSMGWFRQAPGKEREFVAAISGSENVTSYADSVKGRFTISADNSKNTAYLQMNSLKPEDTAVYYCARVDDYMDVWGQGTLVTVSS")
50.2
>>> endpoint_result("variant 6-17 (Fc fusion) VHH: EVQLVESGGGLVQPGGSLRLSCAASGNTGSTGYMGWFRQAPGKEREMVAGVINDGSTVYADSVKGRFTISADNSKNTAYLQMNSLKPEDTAVYYCARLATSHQDGTGYLFDYWGQGTLVTVSS")
65.2
>>> endpoint_result("variant 6-65 (Fc fusion) VHH: EVQLVESGGGLVQPGGSLRLSCAASGLPFSTLHMGWFRQAPGKEREFVASLSIFGATGYADSVKGRFTISADNSKNTAYLQMNSLKPEDTAVYYCWMYYYDSSGYYGNYYYGMDVWGQGTLVTVSS")
890
>>> endpoint_result("variant 6-38 (Fc fusion) VHH: EVQLVESGGGLVQPGGSLRLSCAASGNTFSGGFMGWFRQAPGKEREFVAVISSLSSKSYADSVKGRFTISADNSKNTAYLQMNSLKPEDTAVYYCAKVDSGYDYWGQGTLVTVSS")
26.6

Look up Kd for the entries below, preserving their order.
1. variant 6-13 (Fc fusion) VHH: EVQLVESGGGLVQPGGSLRLSCAASGLTFNDYAMGWFRQAPGKEREFVAHIPRSTYSPYYADSVKGRFTISADNSKNTAYLQMNSLKPEDTAVYYCAFLVGPQGVDHGAFDVWGQGTLVTVSS
2. variant 5-28 (Fc fusion) VHH: EVQLVESGGGLVQPGGSLRLSCAASGGTFSVFAMGWFRQVPGKERELVAEITAGGSTYYADSVKGRFTISADNSKNTAYLQMNSLKPEDTAVYYCAVDGPFGWGQGTLVTVSS
3. variant 6-19 (Fc fusion) VHH: EVQLVESGGGLVQPGGSLRLSCAASGSILSIAVMGWFRQAPGKEREFVAAISPSAVTTYYADSVKGRFTISADNSKNTAYLQMNSLKPEDTAVYYCAIGYYDSSGYFDYWGQGTLVTVSS
4. variant 5-37 (Fc fusion, VHH-Fc) VHH: EVQLVESGGGLVQPGGSLRLSCAASGSTFSINAMGWFRQAPGKEREFVGGISRSGATTNYADSVKGRFTISADNSKNTAYLQMNSLKPEDTAVYYCAADGVPEYSDYASGPVWGQGTLVTVSS
5. variant 5-63 (Fc fusion) VHH: EVQLVESGGGLVQPGGSLRLSCAASGFSLDYYDMGWFRQAPGKEREFVAALGWSGGSTDYADSVKGRFTISADNSKNTAYLQMNSLKPEDTAVYYCAAGNGGRYGIVERWGQGTLVTVSS

1: 25.3; 2: 40; 3: 71; 4: 30.2; 5: 10.5

Look up Kd for the entries below, preserving their order.
1. variant 5-16 (Fc fusion) VHH: EVQLVESGGGLVQPGGSLRLSCAASGRTHSIYPMGWFRQAPGKERELVAAIHSGGATVYADSVKGRFTISADNSKNTAYLQMNSLKPEDTAVYYCAARRWIPPGPIWGQGTLVTVSS
2. variant 6-20 (Fc fusion, VHH-Fc) VHH: EVQLVESGGGLVQPGGSLRLSCAASGSTLPYHAMGWFRQAPGKEREFVAAITWNGASTSYADSVKGRFTISADNSKNTAYLQMNSLKPEDTAVYYCARDRYYDTSASYFESETWGQGTLVTVSS

[50.2, 20.9]
